Molecular target: human Aurora A (Homo sapiens, UniProt O14965)
Construct: Histidine tag (N); host or cells: Sf9 insect cells (baculovirus)
Sequence (O14965 whole entry): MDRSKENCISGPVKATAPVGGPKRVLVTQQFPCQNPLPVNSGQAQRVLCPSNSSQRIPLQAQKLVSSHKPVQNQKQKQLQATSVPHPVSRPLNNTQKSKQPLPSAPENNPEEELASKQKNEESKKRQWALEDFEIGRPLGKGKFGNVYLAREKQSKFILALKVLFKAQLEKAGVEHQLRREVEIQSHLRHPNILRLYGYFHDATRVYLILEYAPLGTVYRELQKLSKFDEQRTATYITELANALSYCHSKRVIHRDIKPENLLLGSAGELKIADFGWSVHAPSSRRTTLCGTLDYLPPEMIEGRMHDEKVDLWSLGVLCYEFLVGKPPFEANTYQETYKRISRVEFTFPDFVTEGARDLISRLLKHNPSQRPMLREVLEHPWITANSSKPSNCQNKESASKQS
Assay: Aurora A kinase assay (DELFIA enzyme inhibition)
Type: biochemical
Conditions: read-out: Aurora A IC50
pIC50: −log10 of the molar value.
measurement-type: pIC50

Some solved cases for reference:
// query Name the reported pIC50 value associated with the compound CN1CCN(Cc2ccc(-c3oc(-c4c(F)cccc4F)nc3C(N)=O)cc2)CC1 [Example F-10]
// result > 5.00

// query COc1ccc(-c2oc(-c3ccccc3C(N)=O)nc2C(N)=O)cc1 [Example M-6] , same question.
// result > 4.00

// query CS(=O)(=O)c1ccc(Nc2oc(-c3c(F)cccc3F)nc2C(N)=O)c(F)c1 [Example Q-43] , same question.
// result > 4.00

***
// query Name the reported pIC50 value associated with the compound CN1CCN(C(=O)c2ccc(Nc3oc(-c4c(F)cccc4F)nc3C(N)=O)cc2)[C@H](CO)C1 [Example U-27]
// result > 5.00

====

Molecular target: human Aurora A (Homo sapiens, UniProt O14965)
Construct: Histidine tag (N); host or cells: Sf9 insect cells (baculovirus)
Test: Aurora A kinase assay (DELFIA enzyme inhibition)
Assay type: biochemical
Settings: read-out: Aurora A IC50
Procedure: The protein was purified by one-step affinity chromatography using nickel-agarose […] Assay reactions are set up in a 25 uL final volume on a 96 well plate. […] The reaction is allowed to proceed for 30 minutes at room temperature before stopping with 100 μL Stop solution comprising of 100 mM EDTA, 1×BSA blocker in TBS (Perbio) and 0.05% Surfact-Amps20 (Perbio). […]
measurement-type: IC50

Some solved cases for reference:
// query Name the reported IC50 value associated with the molecule `COc1ccc(-c2nc(-c3cccc(C)c3)[nH]c2C(N)=O)cc1`
// result < 100 µM

// query `COc1ccc(-c2nc(-c3ccc(C)cc3)[nH]c2C(N)=O)cc1` , same question.
// result < 100 µM

// query `CN(C)c1ccc(-c2oc(-c3c(F)cccc3F)nc2C(N)=O)cc1` , same question.
// result < 100 µM

// query `CN(C)CCNc1ccc(-c2oc(-c3c(F)cccc3F)nc2C(N)=O)cc1` , same question.
// result < 10 µM

// query `NC(=O)c1nc(-c2c(F)cccc2F)oc1Nc1cccc(OCCN2CCOCC2)c1` , same question.
// result < 10 µM

Okay, now this molecule:
// query Name the reported IC50 value associated with the molecule `COc1ccc(-c2oc(Nc3cccc(C)c3)nc2C(N)=O)cc1`
// result < 10 µM

====

Target: human FLT3 (Homo sapiens)
Construct: a construct expressing the human FLT3 (564-993) with an amino terminal GST tag
Sequence (P36888 564-993): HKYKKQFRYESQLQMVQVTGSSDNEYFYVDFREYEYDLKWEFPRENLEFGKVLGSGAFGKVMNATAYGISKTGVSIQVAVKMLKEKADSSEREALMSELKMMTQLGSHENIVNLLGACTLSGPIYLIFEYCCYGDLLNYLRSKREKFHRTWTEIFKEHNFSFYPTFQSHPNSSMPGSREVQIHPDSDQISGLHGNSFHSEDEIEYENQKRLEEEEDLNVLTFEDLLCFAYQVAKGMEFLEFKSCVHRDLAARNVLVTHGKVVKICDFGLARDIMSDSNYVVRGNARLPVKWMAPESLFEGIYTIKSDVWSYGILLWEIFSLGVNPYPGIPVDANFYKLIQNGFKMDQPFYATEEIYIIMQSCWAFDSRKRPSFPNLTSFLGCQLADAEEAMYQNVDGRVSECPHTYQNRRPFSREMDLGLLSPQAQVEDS
Assay: FLT3 kinase assay (DELFIA enzyme inhibition)
Structures can show the parent of a compound that is named as a salt.
Consider the following compounds and their measured IC50 readings.

Some solved cases for reference:
// query Give recorded IC50 with human FLT3 (Homo sapiens) for the following compound: `COc1ccc(-c2oc(Nc3ccccc3)nc2C(N)=O)cc1`
// result < 10 µM

// query `Cc1cccc(C)c1-c1nc(C(N)=O)c(Nc2ccc(N3CCNCC3)cc2)o1` , same question.
// result < 10 µM

// query `CN1CCN(C(=O)Nc2ccc(Nc3oc(-c4c(F)cccc4F)nc3C(N)=O)cc2)CC1` , same question.
// result < 10 µM

// query `NC(=O)c1nc(-c2c(F)cccc2F)oc1Nc1ccc(C(=O)N2CCC[C@@H]2CO)cc1` , same question.
// result < 10 µM

// query NC(=O)c1nc(-c2c(F)cccc2F)oc1-c1ccc(N2CCNCC2)nc1 [Example G-2, dihydrochloride] , same question.
// result < 10 µM

***
// query Give recorded IC50 with human FLT3 (Homo sapiens) for the following compound: `NC(=O)c1nc(-c2ccccc2F)oc1-c1ccc(OCCN2CCCCC2)cc1`
// result < 10 µM

// query `CN1CCC(NC(=O)c2ccc(Nc3oc(-c4c(F)cccc4F)nc3C(N)=O)cc2)CC1` , same question.
// result < 10 µM

// query `COc1ccc(-c2oc(-c3cccc4[nH]ccc34)nc2C(N)=O)cc1` , same question.
// result < 10 µM
